Hi there, I'd appreciate the recorded pSTAT5 ratio YT CD25/YT, dilution factor 32, lower table for every entry that follows.
Molecular target: T1, human high affinity trimeric IL-2 receptor (CD25/CD122/CD132) (human, UniProt P01589 22-272; P14784 27-551; P31785 23-369)
T1 sequence 1: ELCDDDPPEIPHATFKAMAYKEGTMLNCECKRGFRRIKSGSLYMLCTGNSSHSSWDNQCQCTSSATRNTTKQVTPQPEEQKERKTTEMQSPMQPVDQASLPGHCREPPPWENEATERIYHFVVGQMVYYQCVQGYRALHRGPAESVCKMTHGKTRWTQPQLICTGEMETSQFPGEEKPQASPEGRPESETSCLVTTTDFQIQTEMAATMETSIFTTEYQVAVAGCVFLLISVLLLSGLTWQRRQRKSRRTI
T1 sequence 2: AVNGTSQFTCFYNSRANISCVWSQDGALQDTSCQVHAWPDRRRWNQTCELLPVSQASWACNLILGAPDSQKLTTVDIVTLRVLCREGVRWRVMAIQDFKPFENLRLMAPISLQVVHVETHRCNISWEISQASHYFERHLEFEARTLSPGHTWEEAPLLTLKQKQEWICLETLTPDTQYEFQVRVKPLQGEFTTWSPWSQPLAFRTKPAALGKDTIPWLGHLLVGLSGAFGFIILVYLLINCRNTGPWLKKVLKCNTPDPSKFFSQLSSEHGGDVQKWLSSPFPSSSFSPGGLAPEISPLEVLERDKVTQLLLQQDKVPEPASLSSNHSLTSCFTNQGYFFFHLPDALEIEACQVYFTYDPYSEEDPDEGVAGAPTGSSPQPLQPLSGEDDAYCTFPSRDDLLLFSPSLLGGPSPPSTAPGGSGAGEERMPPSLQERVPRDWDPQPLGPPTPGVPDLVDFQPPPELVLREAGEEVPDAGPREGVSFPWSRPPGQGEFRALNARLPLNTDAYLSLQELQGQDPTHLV
T1 sequence 3: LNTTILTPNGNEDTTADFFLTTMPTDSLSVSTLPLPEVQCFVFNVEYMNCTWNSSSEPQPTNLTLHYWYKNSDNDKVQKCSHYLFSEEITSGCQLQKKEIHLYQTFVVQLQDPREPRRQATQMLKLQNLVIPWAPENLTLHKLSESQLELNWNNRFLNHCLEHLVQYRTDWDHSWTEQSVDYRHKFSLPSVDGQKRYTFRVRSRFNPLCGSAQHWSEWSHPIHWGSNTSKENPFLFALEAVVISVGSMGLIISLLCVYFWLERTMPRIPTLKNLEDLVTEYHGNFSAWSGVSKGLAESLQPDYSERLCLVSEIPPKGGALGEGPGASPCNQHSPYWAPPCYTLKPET
Experiment: cell-based or functional assay
Give bare numbers.

Use the examples below as a reference point.
Task: Consider the binder shown here: RRH (ligand) cytokine: APTSSSTKKTQLQLEHLRLDLRMILNGINNYKNPKLTRMLTFKFYMPKKATELKHLQCLEEELKPLEEVLNLAQSKNFHLRPRDLISNINVIVLELKGSETTFMCEYADETATIVEFLNRWITFCHSIISTLT What is its recorded pSTAT5 ratio YT CD25/YT, dilution factor 32, lower table?
Output: 10.3

Task: Consider the binder shown here: RSH (ligand) cytokine: APTSSSTKKTQLQLEHLRLDLSMILNGINNYKNPKLTRMLTFKFYMPKKATELKHLQCLEEELKPLEEVLNLAQSKNFHLRPRDLISNINVIVLELKGSETTFMCEYADETATIVEFLNRWITFCHSIISTLT What is its recorded pSTAT5 ratio YT CD25/YT, dilution factor 32, lower table?
Output: 2.8

Task: Consider the binder shown here: RAH (ligand) cytokine: APTSSSTKKTQLQLEHLRLDLAMILNGINNYKNPKLTRMLTFKFYMPKKATELKHLQCLEEELKPLEEVLNLAQSKNFHLRPRDLISNINVIVLELKGSETTFMCEYADETATIVEFLNRWITFCHSIISTLT What is its recorded pSTAT5 ratio YT CD25/YT, dilution factor 32, lower table?
Output: 1.4

Lab note: next binder to report on.
Task: Consider the binder shown here: RIH (ligand) cytokine: APTSSSTKKTQLQLEHLRLDLIMILNGINNYKNPKLTRMLTFKFYMPKKATELKHLQCLEEELKPLEEVLNLAQSKNFHLRPRDLISNINVIVLELKGSETTFMCEYADETATIVEFLNRWITFCHSIISTLT What is its recorded pSTAT5 ratio YT CD25/YT, dilution factor 32, lower table?
Output: 6

These data points were gathered from patent US20210275641A1.
